protocol details: Selectivity index, ratio of CC50 for mouse RAW264.7 cells to IC50 for Trypanosoma cruzi Tulahuen amastigotes infected in mouse L929 cells
Assay type: toxicity, cell-based
stated conditions: read-out: Ratio CC50/IC50
measured parameter: selectivity ratio
Give bare numbers.

Look over these answered cases.
compound | selectivity ratio
CNC(=S)N/N=C(\C)c1ccncc1 | 2.4
N/C(S)=N/N=C/c1ccccn1 | 5.37
O=C1CS/C(=N/N=C/c2ccccn2)N1 | 59.3
C/C(=N\NC(=S)Nc1ccccc1)c1ccccn1 | 82.4
CC1(C)S/C(=N/N=C/c2ccccn2)NC1=O | 279
C/C(=N\N=C1\SC(C(C)C)C(=O)N1c1ccccc1)c1ccncc1 (stereo not drawn) | 332

Give selectivity ratio for each listed item.
1. C/C(=N\NC(N)=S)c1ccccn1
2. CN1C(=O)C(C)(C)S/C1=N/N=C/c1ccccn1
3. O=C1CS/C(=N/N=C/c2ccccn2)N1c1ccccc1
4. S=C(N/N=C/c1ccccn1)Nc1ccccc1
5. C/C(=N\N=C1/SCC(=O)N1c1ccccc1)c1ccncc1

1. 11.6
2. 477
3. 16.2
4. 31.2
5. 250

Give selectivity ratio for each listed item.
1. CC1(C)S/C(=N/N=C/c2ccccn2)N(c2ccccc2)C1=O
2. CN1C(=O)CS/C1=N/N=C/c1ccccn1

1. 228
2. 47.1

---

protocol details: Selectivity index, ratio of CC50 for mouse RAW264.7 cells to IC50 for Trypanosoma cruzi Y trypomastigotes infected in African green monkey Vero cells
Format: toxicity
stated conditions: read-out: Ratio CC50/IC50
selectivity ratio vs 1: less than gives Y; not less than gives N.

Worked cases, answers included:
compound | category label
CC1(C)S/C(=N/N=C/c2ccccn2)N(c2ccccc2)C1=O | N
O=C1CS/C(=N/N=C/c2ccccn2)N1c1ccccc1 | Y
C/C(=N\NC(N)=S)c1ccncc1 | N

Hello, is selectivity ratio of the following compound strictly smaller than 1? C/C(=N\N=C1/SCC(=O)N1c1ccccc1)c1ccncc1 Y

Hello, is selectivity ratio of the following compound strictly smaller than 1? O=C1CS/C(=N/N=C/c2ccccn2)N1 N

Hello, is selectivity ratio of the following compound strictly smaller than 1? C/C(=N\N=C1/SCC(=O)N1C)c1ccccn1 N

---

protocol details: Selectivity index, ratio of CC50 for mouse RAW264.7 cells to IC50 for Trypanosoma cruzi Y trypomastigotes infected in African green monkey Vero cells
Type: toxicity
stated conditions: read-out: Ratio CC50/IC50
Please enter MET where selectivity ratio is greater than or equal to 5, and NOT MET where it is lower.

Worked cases, answers included:
compound | category label
C/C(=N\NC(=S)Nc1ccccc1)c1ccncc1 | MET
CC(C)C1S/C(=N/N=C/c2ccccn2)N(c2ccccc2)C1=O (stereo not drawn) | MET
CN1C(=O)C(C)(C)S/C1=N/N=C/c1ccccn1 | MET
C/C(=N\NC(=S)Nc1ccccc1)c1ccccn1 | NOT MET
C/C(=N\N=C1\SC(C(C)C)C(=O)N1C)c1ccncc1 (stereo not drawn) | NOT MET
N/C(S)=N/N=C/c1ccccn1 | NOT MET
CNC(=S)N/N=C(\C)c1ccccn1 | NOT MET
C/C(=N\N=C1\NC(=O)CS1)c1ccccn1 | NOT MET

Can C/C(=N\N=C1/NC(=O)CS1)c1ccncc1 be said to have selectivity ratio at or above 5? NOT MET

Can CC(C)C1S/C(=N/N=C/c2ccccn2)NC1=O (stereo not drawn) be said to have selectivity ratio at or above 5? MET

Can C/C(=N\NC(N)=S)c1ccccn1 be said to have selectivity ratio at or above 5? NOT MET

Can CNC(=S)N/N=C/c1ccccn1 be said to have selectivity ratio at or above 5? MET
